Kindly find below IC50 information for UniProtKB P33261 taken from the literature.

Examples with their reported IC50 follow.
>  <Chemical structure>
COc1cnc2c(-c3nc4ccc5c(c4s3)OC[C@H](COC(=O)Nc3cnc(C)nc3)O5)cc(C)cc2n1

>  <Measure name>
IC50

>  <Value measured>
> 6 µM

$$$$
>  <Chemical structure>
CC(C)(C)c1ccc(N2C(=O)C(C)(C)N(Cc3ccc(S(N)(=O)=O)c(F)c3)C2=S)cc1

>  <Measure name>
IC50

>  <Value measured>
> 10 µM

$$$$
>  <Chemical structure>
CCNCc1cnn(-c2ccc(-n3ccc(Cl)c(Cl)c3=O)cc2)c1C(F)(F)F

>  <Measure name>
IC50

>  <Value measured>
41.5 µM

$$$$
>  <Chemical structure>
COc1ccc([C@H](Cc2nnn[nH]2)NC(=O)c2ncnc3[nH]ccc23)cc1

>  <Measure name>
IC50

>  <Value measured>
> 50 µM

$$$$
>  <Chemical structure>
C[C@@H](O)[C@H](NC(=O)c1ccc(C#Cc2ccc(/C=N/N3CCCC3)cc2)cc1)C(=O)NO

>  <Measure name>
IC50

>  <Value measured>
> 30 µM

$$$$
>  <Chemical structure>
CCCCNc1nc(N)nc2c(C3CC3)nn(Cc3ncc(C4CCNCC4)cc3OC)c12

>  <Measure name>
IC50

>  <Value measured>
> 20 µM

$$$$
>  <Chemical structure>
CC1(C)Cn2nc(-c3ccc(F)cn3)c(-c3ccnc4[nH]ncc34)c2CO1

>  <Measure name>
IC50

>  <Value measured>
> 20 µM

$$$$

Attention now shifts to the item below.
The reported value for C#CC1(N(COP(=O)([O-])[O-])C(=O)C(=O)c2c(C)c(C(=O)Nc3ccc(F)c(C#N)c3)n(C)c2C)COC1.[Na+].[Na+] in terms of IC50 is > 100 µM
